Task for the reader: assign each of the following molecules its reported IC50.
Response body: numeric value in nM, unit text excluded.

INPUT: # returns recorded IC50 (system: Leukotriene A-4 hydrolase (Homo sapiens)) for CC(NC(=O)C(CC(=O)O)Cc1ccccc1)C(=O)O (stereo not drawn)
Sequence (P09960 whole entry): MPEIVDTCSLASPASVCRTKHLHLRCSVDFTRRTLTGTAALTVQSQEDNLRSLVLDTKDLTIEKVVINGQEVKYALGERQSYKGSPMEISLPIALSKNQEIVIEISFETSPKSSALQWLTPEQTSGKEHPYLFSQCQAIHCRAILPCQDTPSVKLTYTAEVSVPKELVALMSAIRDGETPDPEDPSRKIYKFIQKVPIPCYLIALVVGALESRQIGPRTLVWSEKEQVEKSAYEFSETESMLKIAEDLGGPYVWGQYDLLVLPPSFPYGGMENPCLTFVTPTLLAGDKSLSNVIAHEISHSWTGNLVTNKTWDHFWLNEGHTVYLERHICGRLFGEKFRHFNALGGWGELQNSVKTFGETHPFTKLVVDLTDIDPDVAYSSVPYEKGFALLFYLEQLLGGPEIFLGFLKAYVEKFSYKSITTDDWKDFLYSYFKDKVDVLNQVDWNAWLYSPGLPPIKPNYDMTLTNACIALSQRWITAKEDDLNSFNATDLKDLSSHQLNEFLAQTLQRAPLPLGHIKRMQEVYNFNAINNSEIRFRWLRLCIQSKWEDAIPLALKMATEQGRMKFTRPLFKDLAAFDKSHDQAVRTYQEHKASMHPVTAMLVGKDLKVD
OUTPUT: 300

INPUT: Field: IC50 (Leukotriene A-4 hydrolase (Homo sapiens)). Entry: O=C(CC(Cc1ccccc1)C(=O)N1CCCCC1C(=O)O)NO (stereo not drawn)
OUTPUT: 1800

INPUT: Kindly state the measured IC50 obtained for O=C(O)c1ccc(CN2CC3CCCC2C(Nc2ccc(Oc4nc5ccccc5s4)cc2)C3)cc1 (stereo not drawn) with Leukotriene A-4 hydrolase (Homo sapiens).
OUTPUT: 9
